- Test system: U2OS
- procedureSummary: Multiplex assay against U2OS
- Type: toxicity, cell-based
- conditionDescription: human, 24 h, 1 µM, compound concentration 1 uM, replicate 2
Listing of entries alongside the reported Population Healthy Nuclei (%).

compound: Cc1nc(-c2cn3c(n2)-c2ccc(-c4cnn(C(C)(C)C(N)=O)c4)cc2OCC3)n(C(C)C)n1
Population Healthy Nuclei (%): 64
--
compound: CC(C)(O)CNc1ncc(-c2ccnc(Nc3ccnc(Cl)c3)n2)c(CC2CC2)n1
Population Healthy Nuclei (%): 74
--
compound: CN1CCCC(n2nc(Cc3ccc(Cl)cc3)c3ccccc3c2=O)CC1.Cl (stereo not drawn) [AZELASTINE HYDROCHLORIDE]
Population Healthy Nuclei (%): 76
--
compound: Cl.N#Cc1ccc2[nH]cc(CCCCN3CCN(c4ccc5oc(C(N)=O)cc5c4)CC3)c2c1 [VILAZODONE HYDROCHLORIDE]
Population Healthy Nuclei (%): 78
--
compound: CCN(CC)CCCCNc1ncc2cc(-c3cc(OC)cc(OC)c3)c(NC(=O)NC(C)(C)C)nc2n1
Population Healthy Nuclei (%): 15
--
compound: c1cn2cc(-c3ccc4cn[nH]c4c3)nc(Nc3ccc(N4CCOCC4)cc3)c2n1
Population Healthy Nuclei (%): 74
--
compound: CN(C)C(=O)N[C@H]1CC[C@H](CCN2CCN(c3cccc(Cl)c3Cl)CC2)CC1.Cl [CARIPRAZINE HYDROCHLORIDE]
Population Healthy Nuclei (%): 84
--
compound: COc1cccc([C@@H](C)NCCCc2ccccc2Cl)c1.Cl [TECALCET HYDROCHLORIDE]
Population Healthy Nuclei (%): 80
